Values compiled from patent US20250136720A1.

- TEST TARGET: T1, Human CD137 on Jurkat cells (human, UniProt Q07011 24-255)
- T1 construct: whole, on cells; also called full-length human CD137-expressing Jurkat cell line; NF-kB-Luc2/4-1BB Jurkat
- ASSAY PROCEDURE: flow cytometry, Jurkat cells;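 also: binding of antibody-containing supernatants to NF-kB-Luc2/4-1BB Jurkat cells, detected by flow cytometry with a PE-labelled anti-human IgG-Fc secondary antibody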
QUANTITY: binding result

BINDER	RESULT
CD137 #B21 (antibody, human IgG1, V domains shown, human IgG1 KO (L234A/L235A)/kappa chimeric IgG; also called CD137 #1; B21 parent) VH: EVKLVESEGGLVQPGSSMKLSCTASGFTFSDFYMAWVRQVPEKGLEWVANINYDGSSTYYLDSLKSRFIISRDNARNILYLQMSSLKSEDTATYYCAREGDEGWYFDVWGAGTTVTVSS VL: DIVMTQSHKFMSTSVGDRVSITCKASQDVSTAVAWYQQKPGQSPKLLIYSASYRYTGVPDRFTGSGSGTDFTFTISSVQAEDLAVYYCQQHYSNPWTFGGGTKLEIK	binds
CD137 #B10 (antibody, human IgG1, V domains shown, human IgG1 KO (L234A/L235A)/kappa chimeric IgG) VH: QVQLVQSGAEVKKPGASVKVSCKASGYTFTNYPMHWVRQAPGQRLEWMGWSNAGSGNTKYSQDFQGRVSITRDTSASTAYMELSSLKSEDMAIYYCAREGVAGAFDIWGQGTVVTVSS VL: DIVMTQSPLSLPVTPGEPASISCRSSQRLLHSNGFNYLGWYLQKPGQSPQLLIYLGSHRASGVPDRFSGSGSGTDFTLKISRVEAEDVGVYYCMQPLQIPYTFGQGTKLEIK	binds
CD137 #B4 (antibody, human IgG1, V domains shown, human IgG1 KO (L234A/L235A)/kappa chimeric IgG) VH: DVQLQESGPGLVKPSQSLSLTCTVTGYSITSDYAWNWIRQFPGNRLEWMGYISYSGSTSYNPSLKSRISITRDTSKNQFFLQLNSVTTEDTATYFCARWGYVLDYWGQGTSVTVSS VL: DIVMTQSHKFMSTSEGDRVSITCKASQDVSTAVAWYQQKPGQSPKLLIYWASTRHTGVPDRFRGSGSGTDYTLTISSVQAEDLALYFCQQHYFTPYTFGGGTKLEIK	binds
